Biological target: MDA-9/Syntenin (Homo sapiens, UniProt O00560)
Construct: made in house
Sequence (O00560 1-298): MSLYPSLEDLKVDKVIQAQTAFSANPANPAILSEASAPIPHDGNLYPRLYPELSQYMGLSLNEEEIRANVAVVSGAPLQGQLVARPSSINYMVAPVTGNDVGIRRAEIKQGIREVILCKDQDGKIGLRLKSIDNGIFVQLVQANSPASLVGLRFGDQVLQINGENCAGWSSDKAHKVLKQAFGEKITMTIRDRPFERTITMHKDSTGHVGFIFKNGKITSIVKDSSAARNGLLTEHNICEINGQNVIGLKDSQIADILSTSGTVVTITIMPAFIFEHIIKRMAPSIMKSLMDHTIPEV
Experiment: Fluorescence polarization titration of ligands into MDA-9/Syntenin
Assay type: binding
Details: 20 mM Tris-HCl, 100 mM NaCl, 0.01% PEG800, 0.05% Tween20, pH 7.4; single-site fit; minimum of two titrations
Method: Spectrofluorimetric titrations were performed on a Horiba QM400 spectrometer (HORIBA Scientific, Piscataway, NJ, USA). […] The ligands (either URD001, NGI03, or NVS125) were titrated into the protein solution in aliquots, and saturable changes in fluorescence polarization were used to calculate the affinity. […] We then explored fluorescence polarization (λEX = 280 nm, λEM = 340 nm; λREF = 600 nm) in 20 mM Tris-HCl containing 100 mM NaCl, 0.01% PEG800, and 0.05% Tween20, pH 7.4. […]
measured_quantity: pKd
Please report pKd as the negative decimal logarithm of the molar concentration, giving only the number.

{"columns": ["compound", "pKd"],
 "data": [
  ["Cc1cc(NC(=O)c2nc3[nH]c4c(c(=O)n3n2)CCC4)c(C)cc1NC(=O)CC(c1nnc(-c2ccccc2)o1)c1nnc(-c2ccccc2)o1 [NGI03]", 5.96]
]}

Kindly consider the entry below.
[in] What measured pKd is associated with Cc1cc(NC(=O)c2nc3[nH]c4c(c(=O)n3n2)CCC4)c(C)cc1CCCC(c1nnc(-c2ccccc2)o1)c1nnc(-c2ccccc2)o1 [URD001] on MDA-9/Syntenin (Homo sapiens, UniProt O00560)?
[out] 5.52
